All figures here come from patent US8519149B2.

Molecular target: Recombinant human mPGES-1 (Homo sapiens)
Assay: In-vitro mPGES-1 enzyme inhibition assay (PGE2 formation from PGH2, HTRF detection)
Type: biochemical
Details: 1 μM test compound; recombinant human mPGES-1 microsomal fraction; read-out: Percentage inhibition at 1 μM
ATTRIBUTE_MEASURED: inhibition at 1 µM (%)

{"columns": ["ITEM_SMILES", "ATTRIBUTE_MEASURED", "READOUT_VALUE"],
 "data": [
  ["CC1(C)Cc2c(c(C(=O)Nc3ccc(C(F)(F)F)cc3)cc3nc(Nc4c(Cl)cncc4Cl)[nH]c23)O1", "inhibition at 1 µM", 83.4],
  ["CC1(C)Cc2c(c(C(=O)NCc3ccc(F)cc3C(F)(F)F)cc3nc(Nc4c(F)cccc4Cl)[nH]c23)O1", "inhibition at 1 µM", 88.3],
  ["CC1(C)Cc2c(c(C(=O)Nc3ncc(Cl)cc3F)cc3nc(Nc4c(F)cccc4Cl)[nH]c23)O1", "inhibition at 1 µM", 96.6],
  ["Cc1cccc(Cl)c1Nc1nc2cc(C(=O)Nc3ncc(Cl)cc3F)c3c(c2[nH]1)CC(C)(C)O3", "inhibition at 1 µM", 98],
  ["Cc1nc2c(o1)c(C(=O)Nc1cc(C(F)(F)F)ccc1F)cc1nc(Nc3c(F)cccc3Cl)[nH]c12", "inhibition at 1 µM", 98.6],
  ["CC(C)c1noc(-c2cc3nc(Nc4c(F)cccc4Cl)[nH]c3c3c2OC(C)(C)C3)n1", "inhibition at 1 µM", 33.1],
  ["Cc1ccc(Nc2nc3cc(C(=O)Nc4ccc(C(F)(F)F)cc4)c4c(c3[nH]2)CC(C)(C)O4)c(C)n1", "inhibition at 1 µM", 7.88],
  ["Cc1ccc(Cl)c(Nc2nc3cc(C(=O)Nc4ccccc4C(F)(F)F)c4c(c3[nH]2)CC(C)(C)O4)c1", "inhibition at 1 µM", 96.7],
  ["Cn1c(Nc2c(Cl)cncc2Cl)nc2cc(C(=O)Nc3cc(C(F)(F)F)ccc3F)c3c(c21)CC(C)(C)O3", "inhibition at 1 µM", 99.4],
  ["CC1(C)Cc2c(c(C(=O)Nc3ccc(C(F)(F)F)cc3)cc3nc(Nc4ccccc4C(C)(C)C)[nH]c23)O1", "inhibition at 1 µM", 19.3],
  ["CC1(C)Cc2c(c(C(=O)Nc3cccc(C(F)(F)F)c3)cc3nc(NC(=O)c4c(F)cccc4Cl)[nH]c23)O1", "inhibition at 1 µM", 19.6],
  ["CC1(C)Cc2c(c(C(=O)Nc3ccc(OC(F)F)nc3)cc3nc(Nc4c(F)cccc4Cl)[nH]c23)O1", "inhibition at 1 µM", 100],
  ["Cc1cc2c(o1)c(C(=O)NCc1ccc(F)cc1)cc1nc(Nc3c(F)cccc3Cl)[nH]c12", "inhibition at 1 µM", 70.8],
  ["CC1(C)Cc2c(c(C(=O)NC34CC5CC(CC(C5)C3)C4)cc3nc(Nc4c(Cl)cncc4Cl)[nH]c23)O1", "inhibition at 1 µM", 97.8],
  ["CC1(C)Cc2c(c(C(=O)NCC(F)(F)C(F)(F)F)cc3nc(Nc4ccc(F)cc4Cl)[nH]c23)O1", "inhibition at 1 µM", 66]
]}

----------
Target: Recombinant human mPGES-1 (Homo sapiens)
Sequence (O14684 1-152): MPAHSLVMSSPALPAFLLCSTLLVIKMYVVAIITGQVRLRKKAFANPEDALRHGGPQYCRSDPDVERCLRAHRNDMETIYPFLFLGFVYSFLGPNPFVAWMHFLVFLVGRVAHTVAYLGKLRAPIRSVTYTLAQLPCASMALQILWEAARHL
Assay: In-vitro mPGES-1 enzyme inhibition assay (PGE2 formation from PGH2, HTRF detection)
Assay type: biochemical
Conditions: 1 μM test compound; recombinant human mPGES-1 microsomal fraction; read-out: Percentage inhibition at 1 μM
ATTRIBUTE_MEASURED: inhibition at 1 µM (%)

{"columns": ["ITEM_SMILES", "READOUT_VALUE"],
 "data": [
  ["Cn1c(Nc2c(Cl)cncc2Cl)nc2cc(C(=O)Nc3ccc(F)c(C(F)(F)F)c3)c3c(c21)CC(C)(C)O3", 96.3],
  ["CC1(C)Cc2c(c(C(=O)Nc3ccc(F)cc3F)cc3nc(Nc4c(Cl)cncc4Cl)[nH]c23)O1", 99.6],
  ["COc1cc(OC)cc(-c2noc(-c3cc4nc(Nc5c(Cl)cccc5Cl)[nH]c4c4c3OC(C)(C)C4)n2)c1", 62.3],
  ["Cc1cc2c(o1)c(C(=O)NCc1ccccc1C(F)(F)F)cc1nc(Nc3c(Cl)cccc3Cl)[nH]c12", 93.3]
]}

----------
Target: Recombinant human mPGES-1 (Homo sapiens)
Assay: In-vitro mPGES-1 enzyme inhibition assay (PGE2 formation from PGH2, HTRF detection)
Format: biochemical
Settings: 1 μM test compound; recombinant human mPGES-1 microsomal fraction; read-out: Percentage inhibition at 1 μM
Listing: inhibition at 1 µM of selected compounds

{"columns": ["COMPOUND", "UOM", "inhibition at 1 µM"],
 "data": [
  ["CC1(C)Cc2c(c(C(=O)Nc3ccc(F)cc3C(F)(F)F)cc3nc(Nc4c(F)cccc4Cl)[nH]c23)O1 [Example-117]", "%", 100],
  ["CC(C)c1ccc(NC(=O)c2cc3nc(Nc4c(Cl)cccc4Cl)[nH]c3c3c2OC(C)(C)C3)cc1 [Example-90]", "%", 97.7],
  ["CCCCCNC(=O)c1cc2nc(Nc3c(Cl)cncc3Cl)[nH]c2c2c1OC(C)(C)C2 [Example-4]", "%", 94.4],
  ["CC1(C)Cc2c(c(C(=O)Nc3ccc(C(F)(F)F)cc3)cc3nc(Nc4ccc(Cl)cc4Cl)[nH]c23)O1 [Example-91]", "%", 43.9],
  ["CC1(C)CCCC(NC(=O)c2cc3nc(Nc4c(Cl)cncc4Cl)[nH]c3c3c2OC(C)(C)C3)C1 (centres unmarked) [Example-14]", "%", 100],
  ["Cn1c(Nc2c(Cl)cncc2Cl)nc2cc(C(=O)Nc3ccc(C(F)(F)F)cn3)c3c(c21)CC(C)(C)O3 [Example-219]", "%", 97.8],
  ["CC1(C)Cc2c(c(C(=O)Nc3ccc(C(F)(F)F)nc3)cc3nc(Nc4c(Cl)cccc4Cl)[nH]c23)O1 [Example-166]", "%", 97.7],
  ["Cc1cc2c(o1)c(C(=O)Nc1ccc(Br)cc1)cc1nc(Nc3c(Cl)cccc3Cl)[nH]c12 [Example-66]", "%", 96.4],
  ["CC1(C)Cc2c(c(C(=O)Nc3ccc(C(F)(F)F)cc3F)cc3nc(Nc4c(F)cccc4Cl)[nH]c23)O1 [Example-112]", "%", 96.8],
  ["CC1(C)Cc2c(c(C(=O)Nc3ccccc3C(F)(F)F)cc3nc(Nc4c(F)cccc4Cl)[nH]c23)O1 [Example-77]", "%", 93.1],
  ["Cc1nc2c(o1)c(C(=O)Nc1ccc(C(F)(F)F)cc1)cc1nc(Nc3c(Cl)cccc3Cl)[nH]c12 [Example-178]", "%", 91.4],
  ["Cc1cc2c(o1)c(C(=O)NCC1CC1)cc1nc(Nc3c(Cl)cccc3Cl)[nH]c12 [Example-57]", "%", 61.7],
  ["CC1(C)Cc2c(c(C(=O)Nc3cc(C(F)F)ccc3F)cc3nc(Nc4c(F)cccc4Cl)[nH]c23)O1 [Example-131]", "%", 96.9],
  ["Cc1nc2c(o1)c(C(=O)Nc1ccc(C(C)(C)C)cc1)cc1nc(Nc3c(Cl)cccc3Cl)[nH]c12 [Example-180]", "%", 98.7],
  ["Cc1ccc(NC(=O)c2cc3nc(Nc4c(F)cccc4Cl)[nH]c3c3c2OC(C)(C)C3)c(F)c1 [Example-128]", "%", 90.5],
  ["CC1(C)Cc2c(c(C(=O)Nc3ncc(Cl)cc3F)cc3nc(Nc4c(Cl)cccc4Cl)[nH]c23)O1 [Example-205]", "%", 99.9],
  ["CC1(C)Cc2c(c(C(=O)NCc3ccccc3C(F)(F)F)cc3nc(Nc4c(Cl)cncc4Cl)[nH]c23)O1 [Example-2]", "%", 97],
  ["CC1(C)Cc2c(c(C(=O)Nc3cccc(C(C)(F)F)c3)cc3nc(Nc4c(F)cccc4Cl)[nH]c23)O1 [Example-119]", "%", 98.1],
  ["Cc1cccc(Cl)c1Nc1nc2cc(C(=O)NC3(c4cccc(C(F)(F)F)c4)CC3)c3c(c2[nH]1)CC(C)(C)O3 [Example-132]", "%", 92.4],
  ["CC1(C)Cc2c(c(C(=O)Nc3ccc(F)c(F)c3F)cc3nc(Nc4c(Cl)cncc4Cl)[nH]c23)O1 [Example-212]", "%", 95.1],
  ["CC1(C)Cc2c(c(C(=O)Nc3ccc(F)cc3C#N)cc3nc(Nc4c(F)cccc4Cl)[nH]c23)O1 [Example-105]", "%", 91.2],
  ["CC1(C)Cc2c(c(C(=O)Nc3ccccc3F)cc3nc(Nc4c(F)cccc4Cl)[nH]c23)O1 [Example-51]", "%", 96.9],
  ["Cc1ccnc(Cl)c1Nc1nc2cc(C(=O)Nc3cccc(C(F)(F)F)c3)c3c(c2[nH]1)CC(C)(C)O3 [Example-137]", "%", 95.3],
  ["CC(C)(C)CC(C)(C)NC(=O)c1cc2nc(Nc3c(F)cccc3Cl)[nH]c2c2c1OC(C)(C)C2 [Example-52]", "%", 94.3],
  ["CC1(C)Cc2c(c(C(=O)NCc3ccccc3C(F)(F)F)cc3nc(Nc4ccccc4Cl)[nH]c23)O1 [Example-88]", "%", 85.5],
  ["Cc1nc(NC(=O)c2cc3nc(Nc4c(F)cccc4Cl)[nH]c3c3c2OC(C)(C)C3)sc1C [Example-55]", "%", 91.8],
  ["Cc1cccc(Cl)c1Nc1nc2cc(C(=O)Nc3ccc(F)c(C(F)(F)F)c3)c3c(c2[nH]1)CC(C)(C)O3 [Example-133]", "%", 91.4],
  ["COCCCNC(=O)c1cc2nc(Nc3c(Cl)cccc3Cl)[nH]c2c2c1OC(C)(C)C2 [Example-69]", "%", 86.2],
  ["CC1(C)Cc2c(c(C(=O)Nc3ccc(N4CCCC4)nc3)cc3nc(Nc4c(Cl)cccc4Cl)[nH]c23)O1 [Example-96]", "%", 90.4]
]}
